Recorded below: LTKB_BD DILI severity score, system Hepatotoxicity.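 Also: severity score taken from the FDA LTKB benchmark dataset, subset of drugs classed as lower DILI concern.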
assay.readout: LTKB_BD DILI severity score

compound="CC(C)OC(=O)C(C)(C)Oc1ccc(C(=O)c2ccc(Cl)cc2)cc1 [FENOFIBRATE]" measured_target=Hepatotoxicity reported=3
compound="NC(=O)c1ncn([C@@H]2O[C@H](CO)[C@@H](O)[C@H]2O)n1 [RIBAVIRIN]" measured_target=Hepatotoxicity reported=7
compound="O=C([O-])c1cc(=O)c2c(OCC(O)COc3cccc4oc(C(=O)[O-])cc(=O)c34)cccc2o1.[Na+].[Na+] [CROMOLYN SODIUM]" measured_target=Hepatotoxicity reported=3
compound="C[C@@H]1C[C@H]2[C@@H]3CCC4=CC(=O)C=C[C@]4(C)[C@@]3(F)[C@@H](O)C[C@]2(C)[C@@]1(O)C(=O)CO [DEXAMETHASONE]" measured_target=Hepatotoxicity reported=3
compound="CCCNC(=O)NS(=O)(=O)c1ccc(Cl)cc1 [CHLORPROPAMIDE]" measured_target=Hepatotoxicity reported=2
compound="COc1cc2c(c(OC)c1OC)-c1ccc(OC)c(=O)cc1[C@@H](NC(C)=O)CC2 [COLCHICINE]" measured_target=Hepatotoxicity reported=6
compound="CNC(=C[N+](=O)[O-])NCCSCc1csc(CN(C)C)n1 [NIZATIDINE]" measured_target=Hepatotoxicity reported=5
compound="CCOC(=O)C(C)(C)Oc1ccc(Cl)cc1 [CLOFIBRATE]" measured_target=Hepatotoxicity reported=3
compound="CC(C)Cc1ccc(C(C)C(=O)O)cc1 (configuration not stated) [IBUPROFEN]" measured_target=Hepatotoxicity reported=3
compound="O=P1(NCCCl)OCCCN1CCCl (configuration not stated) [IFOSFAMIDE]" measured_target=Hepatotoxicity reported=4
compound="CN1CCN(C2=Nc3cc(Cl)ccc3Nc3ccccc32)CC1 [CLOZAPINE]" measured_target=Hepatotoxicity reported=2
compound="COC(=O)Nc1nc2ccc(C(=O)c3ccccc3)cc2[nH]1 [MEBENDAZOLE]" measured_target=Hepatotoxicity reported=3
compound="CC(=O)CC(c1ccccc1)c1c(O)c2ccccc2oc1=O (configuration not stated) [WARFARIN]" measured_target=Hepatotoxicity reported=5
compound="CC1=C(/C=C/C(C)=C/C=C/C(C)=C\\C(=O)O)C(C)(C)CCC1 [ISOTRETINOIN]" measured_target=Hepatotoxicity reported=2
compound="CN1C(C(=O)Nc2ccccn2)=C(O)c2ccccc2S1(=O)=O [PIROXICAM]" measured_target=Hepatotoxicity reported=3
compound="CN(C)c1nc(N(C)C)nc(N(C)C)n1 [ALTRETAMINE]" measured_target=Hepatotoxicity reported=2
compound="O=C(CCCN1CCC(O)(c2ccc(Cl)cc2)CC1)c1ccc(F)cc1 [HALOPERIDOL]" measured_target=Hepatotoxicity reported=5
compound="CN(C)CCOc1ccc(/C(=C(/CCCl)c2ccccc2)c2ccccc2)cc1 [TOREMIFENE]" measured_target=Hepatotoxicity reported=3
compound="COC(=O)C1=C(C)NC(C)=C(C(=O)OC)C1c1ccccc1[N+](=O)[O-] [NIFEDIPINE]" measured_target=Hepatotoxicity reported=3
compound="CC(C)(O)c1ccccc1CC[C@@H](SCC1(CC(=O)O)CC1)c1cccc(/C=C/c2ccc3ccc(Cl)cc3n2)c1 [MONTELUKAST]" measured_target=Hepatotoxicity reported=3
compound="COc1ccc(C(CN(C)C)C2(O)CCCCC2)cc1 (configuration not stated) [VENLAFAXINE]" measured_target=Hepatotoxicity reported=7
compound="CC(C(=O)O)c1ccc(-c2ccccc2)c(F)c1 (configuration not stated) [FLURBIPROFEN]" measured_target=Hepatotoxicity reported=3
compound="C[C@H](CS)C(=O)N1CCC[C@H]1C(=O)O [CAPTOPRIL]" measured_target=Hepatotoxicity reported=6
compound="CNC(=C[N+](=O)[O-])NCCSCc1ccc(CN(C)C)o1 [RANITIDINE]" measured_target=Hepatotoxicity reported=5
compound="CCc1ccc(CCOc2ccc(CC3SC(=O)NC3=O)cc2)nc1 (configuration not stated) [PIOGLITAZONE]" measured_target=Hepatotoxicity reported=3
compound="Clc1ccccc1C(c1ccccc1)(c1ccccc1)n1ccnc1 [CLOTRIMAZOLE]" measured_target=Hepatotoxicity reported=3
compound="COCCc1ccc(OCC(O)CNC(C)C)cc1 (configuration not stated) [METOPROLOL]" measured_target=Hepatotoxicity reported=5
compound="Nc1nc2c(ncn2COCCO)c(=O)[nH]1 [ACYCLOVIR]" measured_target=Hepatotoxicity reported=5
compound="CN1CCN(CCCN2c3ccccc3Sc3ccc(C(F)(F)F)cc32)CC1 [TRIFLUOPERAZINE]" measured_target=Hepatotoxicity reported=2
compound="CN(C)[C@@H]1C(O)=C(C(N)=O)C(=O)[C@@]2(O)C(O)=C3C(=O)c4c(O)cccc4[C@@](C)(O)[C@H]3C[C@@H]12 [TETRACYCLINE]" measured_target=Hepatotoxicity reported=2
compound="O=C(c1ccccc1)c1ccc2n1CCC2C(=O)O (configuration not stated) [KETOROLAC]" measured_target=Hepatotoxicity reported=3
compound="O[C@@H]1CO[C@H]2[C@@H]1OC[C@@H]2O [ISOSORBIDE]" measured_target=Hepatotoxicity reported=3
compound="CN(C)CCCN1c2ccccc2Sc2ccc(Cl)cc21 [CHLORPROMAZINE]" measured_target=Hepatotoxicity reported=2
compound="CC(=O)S[C@@H]1CC2=CC(=O)CC[C@]2(C)[C@H]2CC[C@@]3(C)[C@@H](CC[C@@]34CCC(=O)O4)[C@H]12 [SPIRONOLACTONE]" measured_target=Hepatotoxicity reported=2
compound="O=NN(CCCl)C(=O)NCCCl [CARMUSTINE]" measured_target=Hepatotoxicity reported=3
compound="O=c1n(CCCN2CCN(c3cccc(Cl)c3)CC2)nc2ccccn12 [TRAZODONE]" measured_target=Hepatotoxicity reported=5
compound="CN(C)CCCN1c2ccccc2CCc2ccccc21 [IMIPRAMINE]" measured_target=Hepatotoxicity reported=3
